B1: TRIM39 (parent)
chain: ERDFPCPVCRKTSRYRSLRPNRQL

Variants of: B1
Assay remarks: protein stability index of a GFP-peptide fusion (GPS, HEK-293T) (PSI 1-6); higher = more stable;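 note: lentivirally expressed fusions sorted by FACS into six bins by GFP to DsRed ratio, PSI derived from sequencing read proportions per bin multiplied by bin number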
Test context: c terminus: a fixed tail appended
I'd be grateful if you could share measured protein stability index for these entries.
Keep it simple and answer with nothing but the number.

[Q] Dear colleague, I am looking for the recorded protein stability index of the following variant: P7H
[A] 3.7

[Q] Dear colleague, I am looking for the recorded protein stability index of the following variant: P5V
[A] 2.29

[Q] Dear colleague, I am looking for the recorded protein stability index of the following variant: Y15D
[A] 3.02

[Q] Dear colleague, I am looking for the recorded protein stability index of the following variant: L18N
[A] 2.41

[Q] Dear colleague, I am looking for the recorded protein stability index of the following variant: L18Y
[A] 1.96

[Q] Dear colleague, I am looking for the recorded protein stability index of the following variant: D3F
[A] 2.93

[Q] Dear colleague, I am looking for the recorded protein stability index of the following variant: C6T
[A] 3.02

[Q] Dear colleague, I am looking for the recorded protein stability index of the following variant: S17N
[A] 2.22

[Q] Dear colleague, I am looking for the recorded protein stability index of the following variant: R16K
[A] 2.14

[Q] Dear colleague, I am looking for the recorded protein stability index of the following variant: P7F
[A] 1.8

[Q] Dear colleague, I am looking for the recorded protein stability index of the following variant: L18F
[A] 2.39

[Q] Dear colleague, I am looking for the recorded protein stability index of the following variant: R14I
[A] 2.28

[Q] Dear colleague, I am looking for the recorded protein stability index of the following variant: R22D
[A] 2.37

[Q] Dear colleague, I am looking for the recorded protein stability index of the following variant: L18V
[A] 2.49

[Q] Dear colleague, I am looking for the recorded protein stability index of the following variant: P20A
[A] 2.22

[Q] Dear colleague, I am looking for the recorded protein stability index of the following variant: V8C
[A] 2.66

[Q] Dear colleague, I am looking for the recorded protein stability index of the following variant: D3H
[A] 1.78

[Q] Dear colleague, I am looking for the recorded protein stability index of the following variant: P5E
[A] 1.76

[Q] Dear colleague, I am looking for the recorded protein stability index of the following variant: R14N
[A] 1.67

[Q] Dear colleague, I am looking for the recorded protein stability index of the following variant: R19V
[A] 1.85

[Q] Dear colleague, I am looking for the recorded protein stability index of the following variant: P20K
[A] 2.58

[Q] Dear colleague, I am looking for the recorded protein stability index of the following variant: E1S
[A] 2.25

[Q] Dear colleague, I am looking for the recorded protein stability index of the following variant: R16A
[A] 1.43

[Q] Dear colleague, I am looking for the recorded protein stability index of the following variant: S17E
[A] 2.13

[Q] Dear colleague, I am looking for the recorded protein stability index of the following variant: P7M
[A] 2.17

[Q] Dear colleague, I am looking for the recorded protein stability index of the following variant: P7S
[A] 2.22

[Q] Dear colleague, I am looking for the recorded protein stability index of the following variant: K11N
[A] 3.36

[Q] Dear colleague, I am looking for the recorded protein stability index of the following variant: L18A
[A] 2.32

[Q] Dear colleague, I am looking for the recorded protein stability index of the following variant: E1Y
[A] 1.66

[Q] Dear colleague, I am looking for the recorded protein stability index of the following variant: V8L
[A] 1.96

[Q] Dear colleague, I am looking for the recorded protein stability index of the following variant: C6M
[A] 3.1

[Q] Dear colleague, I am looking for the recorded protein stability index of the following variant: P7D
[A] 2.43

[Q] Dear colleague, I am looking for the recorded protein stability index of the following variant: P7W
[A] 1.96

[Q] Dear colleague, I am looking for the recorded protein stability index of the following variant: L24N
[A] 2.41

[Q] Dear colleague, I am looking for the recorded protein stability index of the following variant: L24T
[A] 2.51

[Q] Dear colleague, I am looking for the recorded protein stability index of the following variant: C6D
[A] 3.74

[Q] Dear colleague, I am looking for the recorded protein stability index of the following variant: Q23Y
[A] 1.66

[Q] Dear colleague, I am looking for the recorded protein stability index of the following variant: R19A
[A] 1.63

[Q] Dear colleague, I am looking for the recorded protein stability index of the following variant: F4H
[A] 3.14

[Q] Dear colleague, I am looking for the recorded protein stability index of the following variant: R14M
[A] 1.92

[Q] Dear colleague, I am looking for the recorded protein stability index of the following variant: Q23W
[A] 2.26

[Q] Dear colleague, I am looking for the recorded protein stability index of the following variant: F4S
[A] 1.81

[Q] Dear colleague, I am looking for the recorded protein stability index of the following variant: E1K
[A] 1.77

[Q] Dear colleague, I am looking for the recorded protein stability index of the following variant: Y15F
[A] 2.31

[Q] Dear colleague, I am looking for the recorded protein stability index of the following variant: Y15E
[A] 2.19

[Q] Dear colleague, I am looking for the recorded protein stability index of the following variant: N21D
[A] 2.12
